Tested on: Fer (mouse);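 also: frequency after pTyr selection over input frequency; kinase dosed for 20-30% of maximal phosphorylation in three min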
Test Method Notes: phosphorylation enrichment, bacterial display (enrichment ratio); higher = better substrate or ligand; peptides without Tyr show the background
The threshold is inclusive: phosphorylation enrichment of exactly 0.6 counts as fulfilled; values below receive not fulfilled.

- Biopolymer Sequence: "EFLRNYFTDKA [DSG2_Y775]"
  Classification: "not fulfilled"

Read the next record carefully.
Has ADKSAYLMGPN [MYH7_Y386_L390P] a recorded phosphorylation enrichment greater than or equal to 0.6? not fulfilled

---

System: Fer (mouse);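 also: 11-residue human phosphosite peptides and single-mutation variants displayed on the E. coli surface, counted by deep sequencing, each peptide's frequency after selection divided by its frequency in the unselected input library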;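 also: frequency after pTyr selection over input frequency; kinase dosed for 20-30% of maximal phosphorylation in three min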
Test Method Notes: phosphorylation enrichment, bacterial display (enrichment ratio); higher = better substrate or ligand; peptides without Tyr show the background
phosphorylation enrichment values by entry
No unit in the answer, please; the number alone is enough.

- Biopolymer Sequence: "QRPFVYFFSFL [PTEN_Y176_R173P_YF]"
  Target System: "Fer (mouse)"
  phosphorylation enrichment: 0.707
- Biopolymer Sequence: "KFFRVYQGQQP [MUTYH_Y494_V490F]"
  Target System: "Fer (mouse)"
  phosphorylation enrichment: 0.431

Consider the sequence shown here: CQAHGYFCQLI [STK11_Y156] What is its recorded phosphorylation enrichment? 0.402

Lookup RLQEGYDHSYY [ESD_Y258] 0.573

Input EHTTLYSNNST [KANSL1_Y223] 0.602
